Test system: Staphylococcus aureus V41
Experiment: MIC, standard agar-dilution assay
Format: cell-based
Conditions: Staphylococcus aureus V41, Penicillin-resistant strain, inducibly-resistant to erythromycin; read-out: MIC
Source text: In addition to excellent in vitro activity against erythromycin-sensitive bacteria, several members of this new series have shown in vitro activity against erythromycin-resistant strains. These include strains which are inducibly-resistant to erythromycin (S.. aureus V41 and X400 and S. epidermidis EPI1) and even strains which are constitutively-resistant (S. epidermidis 270).
Assay metric: MIC (µg/mL)
# output: bare number, implied unit µg/mL

Answered cases to consult:
CC[C@H]1OC(=O)[C@H](C)[C@@H](O[C@H]2C[C@@](C)(OC)[C@@H](O)[C@H](C)O2)[C@H](C)[C@@H](O[C@@H]2O[C@H](C)C[C@H](N(C)C)[C@H]2O)[C@](C)(O)C[C@@H](C)[C@H](NCC#Cc2ccccc2)[C@H](C)[C@@H](O)[C@]1(C)O
16
CC[C@H]1OC(=O)[C@H](C)[C@@H](O[C@H]2C[C@@](C)(OC)[C@@H](O)[C@H](C)O2)[C@H](C)[C@@H](O[C@@H]2O[C@H](C)C[C@H](N(C)C)[C@H]2O)[C@](C)(O)C[C@@H](C)[C@H](NCCC(C)CCCC(C)(C)OC)[C@H](C)[C@@H](O)[C@]1(C)O (stereo partly shown)
64

Please fill in: MIC reported for "CCCCC/C=C\CCCN[C@@H]1[C@H](C)[C@@H](O)[C@](C)(O)[C@@H](CC)OC(=O)[C@H](C)[C@@H](O[C@H]2C[C@@](C)(OC)[C@@H](O)[C@H](C)O2)[C@H](C)[C@@H](O[C@@H]2O[C@H](C)C[C@H](N(C)C)[C@H]2O)[C@](C)(O)C[C@H]1C" = 8

// provenance: patent EP0238178B1
